Assay: S. pombe growth modifiers, basal conditions – strain 972, OD600, 24 h, no modulator, primary screen (AID 1090);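 also: basal condition with compound alone and no growth modifier present; test concentration not given here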
Settings: S. pombe 972 growth, called active from +8 up or from −8 down
The source made the active and inactive calls.
Mark one answer only. Choices: t (active), f (inactive)

Query: Outcome logged for "C=CC[C@]1(C(=O)N2CCCCC2)N=C(c2ccc(OCCCO)cc2)O[C@H]1c1ccccc1CN=[N+]=[N-]" in this assay:
Result: f

Query: For "COc1ccc([Si](C)(C)[C@H]2[C@H](CC(=O)N(CCO)Cc3ccccc3)O[C@@]3(C(=O)N(C)c4c(Br)cc(C)cc43)[C@@H]2C)cc1" , what call appears in the results of this test?
Result: f

Query: I would be grateful if you could indicate the recorded call for "COC(=O)[C@@]1(Cc2ccc(OC)cc2)[C@H]2c3cc(C(=O)N(C)C)n(Cc4ccc(OC(F)(F)F)cc4)c3C[C@H]2CN1C(=O)c1ccccc1" .
Result: f

Query: Name the outcome recorded for "CCCNC(=O)[C@@]1(C)c2ccccc2C(=O)N(c2ccc(C)cn2)[C@H]1c1ccc(CO)cc1" in the assay.
Result: f

Query: Which result was noted for this compound in the test: Cc1ccccc1C(O)C1C=CC2C(=O)NC(=O)C2N1Nc1ccccn1 (configuration not stated)
Result: f

Query: # lookup: test call for "NC(=O)[C@H]1[C@@H]2C(=O)O[C@@H](c3ccccc3)[C@@H](c3ccccc3)N2[C@@H](c2ccc(OCCO)cc2)[C@]12C(=O)Nc1ccc(C#CCCO)cc12"
Result: f

Query: For "Cc1ccc(F)cc1S(=O)(=O)N[C@@H]1CCN(Cc2ccc(Br)cc2)C1" , what call appears in the results of this test?
Result: t

Query: Check the results log: what was the call for CC(C)C(CO)N1C(=O)[C@@H]2C3C(=O)OCCC/C=C\[C@H]3OC23C=CCN(c2ccc4ccccc4c2)C(=O)[C@@H]13 (some centres not stated) ?
Result: f

Query: GET /call?item= "CC(C)C[C@@H]1NC(=O)[C@@H]2C[C@H](C(=O)NCCCCCCN)[C@H](c3cccc(OCCO)c3)N2C1=O" returns the recorded outcome of this test.
Result: f

Query: Status in this test for "COc1ccc([C@H]2OC[C@@H]3C[C@H](Cc4ccccc4)C(=O)N32)cc1" ?
Result: f

Query: Please indicate how the test categorized COc1cc2c(cc1O)C(C1CC1)N(C)CC2 (configuration not stated) .
Result: f

Query: I would be grateful if you could indicate the recorded call for "C=CC[C@]1(C(=O)N2CCOCC2)COC(c2ccc(OCCCO)cc2)=N1" .
Result: f

Query: # outcome recorded in this test, key = "COc1cccc(C)c1NC(=O)O[C@H]1[C@H](OC(=O)Nc2ccc3c(c2)OCO3)[C@@H](OC(=O)Nc2ccc3c(c2)OCO3)[C@@H](OC)O[C@@H]1CO"
Result: f

Query: Recorded call for "CCOC(=O)C[C@H]1[C@H](OC(=O)c2ccc(-c3ccccc3)cc2)[C@@H](NC(=O)CC(C)C)c2cc(OCCCO)ccc2N1C(=O)c1ccc2ccccc2n1" ?
Result: f

Query: Field: outcome | Entry: "NCCCCCNC(=O)[C@@H]1C[C@@H]2C(=O)N[C@@H](CCCCN)C(=O)N2[C@@H]1c1ccc(O)cc1"
Result: f

Query: Please indicate how the test categorized "COCC(=C=CC[C@H](O)c1ccccc1OCCO)C[C@H](O)c1ccccn1" .
Result: f

Query: How was "[N-]=[N+]=Nc1ccccc1C[C@]1(C(=O)NCCN2CCOCC2)COC(c2ccc(OCCCO)cc2)=N1" classified in this test?
Result: f

Query: How was "COC(=O)[C@@]1(Cc2ccc(F)cc2)[C@H]2c3cc(C(=O)N(C)C)n(Cc4ccc(OC(F)(F)F)cc4)c3C[C@H]2CN1C(=O)c1ccccc1" classified in this test?
Result: f

Query: // return assay outcome for COC(=O)C1=CC(CCCO)=CC(c2ccc(CN3CCCC3)cc2)N(Cc2cccc(OC(F)(F)F)c2)C=C1C(=O)OC (configuration not stated)
Result: t

Query: Just curious, what result did "CCCC#C[Si](O[C@H](CC)c1cn([C@H](C)c2ccccc2)nn1)(C(C)C)C(C)C" get here?
Result: t

Query: Could you kindly confirm the outcome this assay logged for "C=C[C@H](C)[C@H](OC(=O)Nc1ccc(SC)cc1)c1ccc(OCCO)cc1" ?
Result: f

Query: What classification did CC1CC/C=C\[C@H]2OC34C=CCN(c5ccc(Cl)cc5)C(=O)[C@H]3N(C(C)CO)C(=O)[C@]4(C)C2C(=O)O1 (some centres not stated) end up with in this test?
Result: f

Query: What was the test verdict on "COCCCNC(=O)[C@@]1(CCC(=O)OC(C)(C)C)N=C(c2ccc(OCCCO)cc2)O[C@H]1c1ccccc1N=[N+]=[N-]" ?
Result: f

Query: Could you check what this test reported for "CN(C)C(=O)[C@]1(Cc2ccccc2CN=[N+]=[N-])N=C(c2ccc(OCCCO)cc2)O[C@@H]1c1ccccc1" ?
Result: f

Query: Dear all, I need the recorded test outcome for "COCCCNC(=O)[C@@]1(Sc2ccc(C)cc2)CC(=O)N(C2Cc3ccccc3C2)[C@@H]1c1ccc(CO)cc1" , thank you.
Result: f

Query: Short answer needed: outcome of this test for "C=C(COC)C(=O)CC[C@@H](OC(C)=O)c1cccc(OCCO)c1" ?
Result: f

Query: Recorded test call requested for "O=C(NCCN1CCOCC1)[C@@H]1c2ccccc2C(=O)N(Cc2ccccc2Cl)[C@H]1c1ccc(CO)cc1"
Result: f

Query: GET /call?item= "C=CCN1C(=O)[C@]2(CCC(=O)OC(C)(C)C)N=C(c3ccc(OCCCO)cc3)O[C@@H]2c2ccccc21" returns the recorded outcome of this test.
Result: f

Query: What outcome does the record of this test show for "COc1ccc(CCNC(=O)[C@@H]2c3ccccc3C(=O)N(C3CCCCC3)[C@H]2c2ccc(CO)cc2)cc1" ?
Result: f

Query: Fill in: this test's call for CCCC1(C(=O)OC)C=C2C(=C(C)C(=O)C2C)CN1 (configuration not stated) is ___
Result: f

Query: I'd appreciate the recorded outcome for "COc1ccc(CCNC(=O)[C@@]2(Sc3ccc(C)cc3)CC(=O)N(Cc3ccccc3C(F)(F)F)[C@@H]2c2ccc(CO)cc2I)cc1" from this test.
Result: f

Query: Test call for this compound, please: "COCCCNC(=O)[C@@H]1c2ccccc2C(=O)N(C(C)C)[C@H]1c1ccc(CO)cc1"
Result: f
